Origin of measurements: patent US6114334A

molecular target: α1-adrenoceptors; test: inhibition of 7-methoxy-[3H]prazosin binding to α1-adrenoceptors in vitro; set-up: species or system rat (male Charles River CD, whole cortical tissue); conditions: rat whole cortex, 7-methoxy-[3H]prazosin 0.1 nM, 30° C., 30 min
quantityName: Ki (nM)
Lab book: enter the figure in nM, no units written.

Q: Entry CC(C)(C)n1nc(C2CC2)c(CN2CCN(c3cccc4c3OCCO4)CC2)c1N [Example 24] : reported Ki = ?
A: 177

Q: Consider the molecule COc1ccccc1N1CCN(CC2(C)N=C(c3cccnc3)NC2=O)CC1 (stereo not drawn) [Example 36] and give its measured Ki.
A: 396

Q: Given the molecule C=CCn1c(N)c(CN2CCN(c3cccc4c3OCCO4)CC2)c(=O)n1-c1ccccc1 [Example 6] , what is its reported Ki?
A: 45

Q: Item under review: Nc1c(CN2CCN(c3cccc4c3OCCO4)CC2)c(C2CCCC2)nn1-c1ccccc1 [Example 21] . Reported Ki?
A: 21

Q: Requested field: Ki. Item: COc1ccccc1N1CCN(Cn2nc(-c3ccc(Cl)cc3)n(-c3cccnc3)c2=S)CC1 [Example 48]
A: 430

Q: So what's the measured Ki for this one? Cn1c(N)c(CN2CCN(c3cccc4ccoc34)CC2)c(=O)n1-c1ccccc1 [Example 7]
A: 19

Q: Given Cc1ccccc1N1CCN(Cc2c(C3CC3)nn(-c3ccccc3)c2N)CC1 [Example 19] , state its recorded Ki.
A: 38

Q: Look up Ki: COc1ccccc1N1CCN(CC2(C)N=C(c3ccccc3)NC2=O)CC1 (stereo not drawn) [Example 37]
A: 271

Q: Ki for N#Cc1ccc(-n2nc(C3CC3)c(CN3CCN(c4cccc5c4OCCO5)CC3)c2N)cc1 [Example 32] ?
A: 44

Q: Param item = COc1ccccc1N1CCN(Cc2c(C3CC3)nn(-c3ccccc3)c2N)CC1 [Example 9] ; retrieve measured Ki.
A: 9

Q: // query Ki value for entry Cn1nc(-c2ccccc2)c(CN2CCN(c3cccc4c3OCCO4)CC2)c1N [Example 13]
A: 57

Q: Looking for the measured Ki of CC(C)Oc1ccccc1N1CCN(Cc2c(N)n(C)n(-c3ccccc3)c2=O)CC1 [Example 8] , can you help?
A: 12

---

biological target: α2D-adrenoceptors (Rattus norvegicus); test: inhibition of tritiated idazoxan binding to α2D-adrenoceptors in vitro; parameters: species or system rat (male Charles River CD, frontal cortical tissue); conditions: 10^-6 M, rat frontal cortex, [3H]idazoxan; read-out: % displacement at 10^-6 M, α2D
Sequence (P22909 whole entry): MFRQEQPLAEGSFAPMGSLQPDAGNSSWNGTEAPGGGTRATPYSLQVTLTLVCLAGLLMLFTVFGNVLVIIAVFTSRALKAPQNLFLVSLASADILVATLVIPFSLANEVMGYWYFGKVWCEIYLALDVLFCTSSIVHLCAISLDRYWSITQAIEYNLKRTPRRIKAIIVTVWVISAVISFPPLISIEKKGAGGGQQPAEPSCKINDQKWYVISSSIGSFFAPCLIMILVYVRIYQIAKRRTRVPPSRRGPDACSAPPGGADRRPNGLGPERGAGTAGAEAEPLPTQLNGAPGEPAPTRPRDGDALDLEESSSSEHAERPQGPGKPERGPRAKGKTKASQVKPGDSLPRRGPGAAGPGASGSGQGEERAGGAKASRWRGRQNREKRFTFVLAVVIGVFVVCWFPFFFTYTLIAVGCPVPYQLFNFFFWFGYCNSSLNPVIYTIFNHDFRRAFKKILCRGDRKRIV
Could you label it T if measured inhibition at 1 µM is 80% or higher, and F otherwise?

Q: Could you tell me if the measured inhibition at 1 µM of Nc1c(CN2CCN(c3cccc4c3OCCO4)CC2)c(C2CC2)nn1-c1ccccc1Cl [Example 33] reaches 80% or more?
A: T

Q: In plain terms: is recorded inhibition at 1 µM at least 80% for Cn1nc(C2CCC2)c(CN2CCN(c3cccc4c3OCCO4)CC2)c1N [Example 30] ?
A: T

Q: Check if inhibition at 1 µM >= 80% (inclusive). Item: Nc1c(CN2CCN(c3cccc4c3OCCO4)CC2)c(C2CC2)nn1-c1ccncc1 [Example 34]
A: T

Q: // inclusive: inhibition at 1 µM at least 80%? input: C=CCn1c(-c2ccc(Cl)cc2)nn(CN2CCN(c3ccccc3OC)CC2)c1=S [Example 62]
A: F

Q: Given the entry C=CCN1C(=O)C(C)(CN2CCN(c3cccc4c3OCCO4)CC2)N=C1c1cccnc1 (stereo not shown) [Example 44] , answer whether its inhibition at 1 µM meets or surpasses 80%.
A: F

Q: Has Nc1c(CN2CCN(c3cccc4c3OCCO4)CC2)c(C2CC2)nn1-c1ncccn1 [Example 35] a recorded inhibition at 1 µM greater than or equal to 80%?
A: T

Q: Decide: inhibition at 1 µM of N#Cc1ccc(-n2nc(C3CC3)c(CN3CCN(c4cccc5c4OCCO5)CC3)c2N)cc1 [Example 32] >= 80%?
A: T

Q: Is reported inhibition at 1 µM greater than or equal to 80% here: Cc1ccccc1N1CCN(Cc2c(N)n(C)n(-c3ccccc3)c2=O)CC1 [Example 3]
A: F

Q: # bool: inhibition at 1 µM of C=CCn1c(-c2cccnc2)nn(CN2CCN(c3ncccn3)CC2)c1=S [Example 57] >= 80%
A: T

Q: Reported inhibition at 1 µM at or above 80%? Nc1c(CN2CCN(c3cccc4c3OCCO4)CC2)c(C2CCC2)nn1-c1ccccc1 [Example 29]
A: T

Q: Determine whether this compound has inhibition at 1 µM no lower than 80%: CC(C)Oc1ccccc1N1CCN(Cc2c(C3CCC3)nn(C)c2N)CC1 [Example 28]
A: T

Q: Answer whether inhibition at 1 µM of C=CCn1c(-c2cccnc2)nn(CCCCN2CCN(c3cccc(C)c3C)CC2)c1=O [Example 64] is greater than or equal to 80%.
A: T

Q: Item C=CCn1c(-c2cccnc2)nn(CN2CCN(c3cccc(C)c3C)CC2)c1=S [Example 61] with inhibition at 1 µM of 80% or above?
A: F

Q: Kindly determine if inhibition at 1 µM recorded for C=CCn1c(-c2cccnc2)nn(CN2CCN(c3ccccc3OC)CC2)c1=O [Example 63] is above or exactly 80%.
A: F
